Data provenance: patent US11214565B2

# Measured Target: LRRK2 G2019S enzyme (Homo sapiens (Human), UniProt Q5S007, G2019S)
# Sequence (Q5S007 whole entry G2019S): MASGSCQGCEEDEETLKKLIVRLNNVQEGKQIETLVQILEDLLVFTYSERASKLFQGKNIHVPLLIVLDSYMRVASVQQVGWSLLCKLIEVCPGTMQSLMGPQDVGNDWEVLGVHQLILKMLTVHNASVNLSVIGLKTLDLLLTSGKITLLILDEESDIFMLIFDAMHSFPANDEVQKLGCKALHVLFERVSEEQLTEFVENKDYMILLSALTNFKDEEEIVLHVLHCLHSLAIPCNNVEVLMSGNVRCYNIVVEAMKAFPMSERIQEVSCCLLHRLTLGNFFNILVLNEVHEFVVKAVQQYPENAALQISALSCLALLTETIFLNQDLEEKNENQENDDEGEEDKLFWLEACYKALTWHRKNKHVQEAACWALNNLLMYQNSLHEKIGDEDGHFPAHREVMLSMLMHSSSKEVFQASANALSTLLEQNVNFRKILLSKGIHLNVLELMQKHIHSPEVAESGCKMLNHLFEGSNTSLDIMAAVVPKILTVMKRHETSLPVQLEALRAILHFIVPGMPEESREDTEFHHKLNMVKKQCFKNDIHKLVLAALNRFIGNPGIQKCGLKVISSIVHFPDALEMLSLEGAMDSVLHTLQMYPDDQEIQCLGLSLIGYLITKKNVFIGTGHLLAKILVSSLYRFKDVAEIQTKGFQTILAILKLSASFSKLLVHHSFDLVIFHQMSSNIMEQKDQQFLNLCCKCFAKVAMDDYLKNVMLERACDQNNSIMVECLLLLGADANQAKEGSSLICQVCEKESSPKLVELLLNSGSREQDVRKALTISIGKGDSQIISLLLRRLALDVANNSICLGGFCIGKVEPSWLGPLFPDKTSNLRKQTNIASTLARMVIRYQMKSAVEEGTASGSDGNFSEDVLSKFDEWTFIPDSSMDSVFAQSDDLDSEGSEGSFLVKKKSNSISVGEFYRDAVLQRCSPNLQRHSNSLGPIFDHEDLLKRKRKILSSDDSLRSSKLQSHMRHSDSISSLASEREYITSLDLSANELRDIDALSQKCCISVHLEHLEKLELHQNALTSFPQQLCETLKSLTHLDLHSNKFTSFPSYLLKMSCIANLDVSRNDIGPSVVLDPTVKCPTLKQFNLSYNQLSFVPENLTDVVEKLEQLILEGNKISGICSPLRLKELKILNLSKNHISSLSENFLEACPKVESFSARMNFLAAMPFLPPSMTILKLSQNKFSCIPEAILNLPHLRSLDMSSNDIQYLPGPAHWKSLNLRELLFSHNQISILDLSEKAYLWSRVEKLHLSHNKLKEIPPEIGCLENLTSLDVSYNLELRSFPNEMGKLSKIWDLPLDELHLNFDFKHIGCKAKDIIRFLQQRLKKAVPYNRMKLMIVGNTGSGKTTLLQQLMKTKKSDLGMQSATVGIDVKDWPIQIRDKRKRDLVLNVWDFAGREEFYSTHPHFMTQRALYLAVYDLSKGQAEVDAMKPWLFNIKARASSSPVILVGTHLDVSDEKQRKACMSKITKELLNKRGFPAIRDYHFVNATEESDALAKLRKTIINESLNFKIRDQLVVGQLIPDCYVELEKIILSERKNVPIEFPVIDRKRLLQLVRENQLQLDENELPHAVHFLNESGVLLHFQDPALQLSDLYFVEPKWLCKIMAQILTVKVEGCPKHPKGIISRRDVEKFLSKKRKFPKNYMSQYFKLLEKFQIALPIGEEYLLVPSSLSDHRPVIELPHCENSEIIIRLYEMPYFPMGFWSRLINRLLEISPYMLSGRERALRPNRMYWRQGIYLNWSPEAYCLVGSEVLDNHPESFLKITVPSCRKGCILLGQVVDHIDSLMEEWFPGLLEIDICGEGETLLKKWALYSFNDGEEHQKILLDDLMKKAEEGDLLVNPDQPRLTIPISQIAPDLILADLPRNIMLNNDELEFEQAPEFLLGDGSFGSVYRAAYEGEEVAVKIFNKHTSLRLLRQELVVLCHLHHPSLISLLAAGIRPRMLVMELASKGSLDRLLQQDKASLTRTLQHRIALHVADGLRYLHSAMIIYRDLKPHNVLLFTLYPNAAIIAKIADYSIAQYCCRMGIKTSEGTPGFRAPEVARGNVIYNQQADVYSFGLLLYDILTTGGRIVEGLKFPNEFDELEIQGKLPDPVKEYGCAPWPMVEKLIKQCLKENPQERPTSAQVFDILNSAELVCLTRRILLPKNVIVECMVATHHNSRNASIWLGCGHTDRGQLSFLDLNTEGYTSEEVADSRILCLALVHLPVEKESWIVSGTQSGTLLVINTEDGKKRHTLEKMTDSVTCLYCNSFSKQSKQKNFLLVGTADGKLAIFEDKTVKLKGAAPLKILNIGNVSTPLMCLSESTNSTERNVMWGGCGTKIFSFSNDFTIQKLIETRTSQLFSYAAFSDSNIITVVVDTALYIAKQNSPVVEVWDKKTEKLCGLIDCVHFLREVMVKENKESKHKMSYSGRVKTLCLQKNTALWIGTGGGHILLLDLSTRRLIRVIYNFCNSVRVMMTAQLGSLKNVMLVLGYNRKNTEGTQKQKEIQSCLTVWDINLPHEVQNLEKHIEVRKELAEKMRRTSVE
# Test Details: LRRK2 G2019S TR-FRET biochemical kinase assay (LRRKtide substrate)
# Test Conditions: Table A-2; 5 nM LRRK2, 134 μM ATP, 60 minute reaction, 23° C.
# Procedure: LRRK2 G2019S enzyme, Substrate (LRRKtide), ATP, TR-FRET dilution buffer, pLRRKtide antibody, 384-well assay plate, and DMSO. […] To perform the detection of the reaction, EDTA completely mixed in TR-FRET dilution buffer was added to antibody reagent. […] Plates were read on Perkin Elmer Envision 2104 instrument in TR-FRET mode using a 340 nm excitation filter, 520 nm fluorescence emission filter, and 490 or 495 nm terbium emission filter. […]
pIC50: −log10 of the molar value.
Measured pIC50, listed per entry.

>  <Compound>
Cc1c(Nc2ncc(C(F)(F)F)c(C3CC3)n2)cnn1C1COC1

>  <Metric Name>
pIC50

>  <Experimental Value>
> 7.52

$$$$

pIC50 recorded for this compound, Cc1nn(C2COC2)cc1Nc1ncc(C(F)(F)F)c(C2CC2)n1 , is > 7.52

Documented pIC50 of Cc1nn(C(C)(C)C#N)cc1Nc1ncc(C(F)(F)F)c([C@@H]2C[C@H]2F)n1 (single isomer, unassigned) : < 7.22

Reported pIC50 of Cc1nn(C2(C#N)CC2)cc1Nc1ncc(C(F)(F)F)c(C2CC2)n1 : > 7.52

The compound CCN1CC(n2cc(Nc3ncc(C(F)(F)F)c(C4CC4)n3)c(C)n2)CCC1=O (single isomer, unassigned) [Compound A-62] showed pIC50 equal to < 7.22

# pIC50 (compound: Cc1c(Nc2ncc(C(F)(F)F)c(C3CC3)n2)cnn1[C@H]1CC2C(C1)[C@H]2c1ncnn1C (some centres unmarked) ) is > 7.52

For record Cc1c(Nc2ncc(C(F)(F)F)c(C3CC3)n2)cnn1C1CCC(=O)N(C)C1 (centres unmarked) the listed pIC50 is > 7.52

For record Cc1nn(C(C)(C)C#N)cc1Nc1ncc(Cl)c(C2CC2)n1 the listed pIC50 is > 7.52

----------
# Measured Target: LRRK2 G2019S enzyme (Homo sapiens (Human), UniProt Q5S007, G2019S)
# Test Details: LRRK2 G2019S TR-FRET biochemical kinase assay (LRRKtide substrate)
# Test Conditions: Table D-4; 5 nM LRRK2, 134 μM ATP, 60 minute reaction, 23° C.
pIC50: −log10 of the molar value.
Metric Name: pIC50

>  <Compound>
CCNc1nc(Nc2cn(C(C#N)(CF)CF)nc2C)ncc1C(F)(F)F

>  <Metric Name>
pIC50

>  <Experimental Value>
> 7.52

$$$$

The reported pIC50 of the compound CCNc1nc(Nc2cn(C3Cc4nccn4C3)nc2C)ncc1C(F)(F)F [Compound D-74] was > 7.52

Form: compound = CCNc1nc(Nc2cnn([C@H]3C[C@H](N4CCCC4=O)C3)c2C)ncc1C(F)(F)F ; pIC50 = > 7.52

----------
Measured IC50 accompanies every entry in the list below.
# Measured Target: LRRK2 G2019S enzyme (Homo sapiens (Human), UniProt Q5S007, G2019S)
# Test Details: LRRK2 G2019S TR-FRET biochemical kinase assay (LRRKtide substrate)
# Test Conditions: Table D-4; 5 nM LRRK2, 134 μM ATP, 60 minute reaction, 23° C.

>  <Compound>
CNc1nc(Nc2cn(C3CCc4c3cnn4C)nc2C)ncc1C(F)(F)F [Compound D-37]

>  <IC50>
30 to 60 nM

$$$$
>  <Compound>
CCNc1nc(Nc2cn(C3CCc4ncsc43)nc2C)ncc1C(F)(F)F [Compound D-57]

>  <IC50>
< 30 nM

$$$$
>  <Compound>
CNc1nc(Nc2cnn([C@H]3C[C@@H](n4cc(F)cn4)C3)c2C)ncc1Br [Compound D-192]

>  <IC50>
< 30 nM

$$$$

Note to self: IC50 recorded for CNc1nc(Nc2cn(C(C)COC(F)F)nc2C)ncc1C(F)(F)F [Compound D-21] was 30 to 60 nM

// field: IC50; key: CNc1nc(Nc2cnn([C@@H]3CCC(n4nccn4)C3)c2C)ncc1C(F)(F)F (stereo partly drawn) [Compounds D-133] ; value = < 30 nM
